meta.source: ChEMBL document CHEMBL2046437

assay: Stability in presence of porcine liver esterase assessed as esterase-mediated compound hydrolysis by measuring ratio of intact compounds and their corresponding acids in pH 7.4 phosphate buffer at 37 degC at 30 mins post incubation by RP-HPLC; type: ADME; details: pig, isolated protein, pH 7.4, 0.5 h
result_type: Ratio
Answer field: number only, no words.

Some molecules with recorded Ratio:
CC/C=C\C[C@H]1C(=O)C=C[C@H]1CC(=O)OC(C)(C)C
11.2
CC/C=C\C[C@H]1C(=O)C=C[C@H]1CC(=O)OCCO
1.7
CC/C=C\C[C@H]1C(=O)C=C[C@H]1CC(=O)OCCOCCO
5.9
CC/C=C\C[C@H]1C(=O)C=C[C@H]1CC(=O)OCCOCCOCCOC
0.3
CC/C=C\C[C@H]1C(=O)C=C[C@H]1CC(=O)OC(C)COC (stereo partly specified)
0.5

Qu. Field request: Ratio | item: CC/C=C\C[C@H]1C(=O)C=C[C@H]1CC(=O)OCCOCCOC
Ans. 0.3

Qu. Data request, read-out Ratio, for CC/C=C\C[C@H]1C(=O)C=C[C@H]1CC(=O)OC(C)CC (stereo partly specified)
Ans. 0.4

* * *

assay: Cytotoxicity in mouse RAW264.7 cells after 24 hrs by MTT assay; format: cell-based; conditions: read-out: TC50
result_type: log10(CC50 at 24 h) (log10 of the value in µM)
Short version: log10 scale, CC50 at 24 h, µM.

Check out these entries, answers already filled in.
CC/C=C\C[C@H]1C(=O)C=C[C@H]1CC(=O)OC(C)C
1.76
CC/C=C\C[C@H]1C(=O)C=C[C@H]1CC(=O)OCC
2.16
CC/C=C\C[C@H]1C(=O)C=C[C@H]1CC(=O)OCCOCCOCCOC
2.21
CC/C=C\C[C@H]1C(=O)C=C[C@H]1CC(=O)OC(C)(C)C
1.52

Qu. Consider the compound shown here: CC/C=C\C[C@H]1C(=O)C=C[C@H]1CC(=O)OCc1ccccc1 What is its recorded log10(CC50 at 24 h)?
Ans. 1.49

Qu. Item CC/C=C\C[C@H]1C(=O)C=C[C@H]1CC(=O)OCCO has what recorded log10(CC50 at 24 h)?
Ans. 2.21

Qu. Which log10(CC50 at 24 h) value is on record for CC/C=C\C[C@H]1C(=O)C=C[C@H]1CC(=O)OC(C)CC (stereo partly drawn) ?
Ans. 1.72

Qu. Name the recorded log10(CC50 at 24 h) for CC/C=C\C[C@H]1C(=O)C(Cl)=C[C@H]1CC(=O)OCCO .
Ans. 0.80

Qu. I have this compound here, CC/C=C\C[C@H]1C(=O)C=C[C@H]1CC(=O)OC(C)c1ccccc1 (stereo partly drawn) , and I need its recorded log10(CC50 at 24 h).
Ans. 1.49

Qu. Recorded log10(CC50 at 24 h) for CC/C=C\C[C@H]1C(=O)C=C[C@H]1CC(=O)OCCOCCOC , please?
Ans. 2.21

Qu. Any idea what its log10(CC50 at 24 h) is? The compound is CC/C=C\C[C@H]1C(=O)C=C[C@H]1CC(=O)OC1CCCCC1
Ans. 1.49

Qu. # get_value(readout='log10(CC50 at 24 h)', item= CC/C=C\C[C@H]1C(=O)C(Cl)=C[C@H]1CC(=O)OC1CCCCC1 )
Ans. 0.99

Qu. Need log10(CC50 at 24 h) of CC/C=C\C[C@H]1C(=O)C=C[C@H]1CC(=O)OC(C)COC (stereo partly drawn) , thanks.
Ans. 2.21

* * *

assay: Stability in presence of porcine liver esterase assessed as esterase-mediated compound hydrolysis by measuring ratio of intact compounds and their corresponding acids in pH 7.4 phosphate buffer at 37 degC at 30 mins post incubation by RP-HPLC; assay type: ADME; settings: pig, isolated protein, pH 7.4, 0.5 h
Below, each entry is listed with its recorded Ratio.

Qu. Recorded Ratio of CC/C=C\C[C@H]1C(=O)C=C[C@H]1CC(=O)Oc1ccc(O)cc1 , please.
Ans. 0

Qu. Could you tell me which Ratio is on file for CC/C=C\C[C@H]1C(=O)C=C[C@H]1CC(=O)OC1CCCCC1 ?
Ans. 4.1

Qu. Record request: Ratio value, item CC/C=C\CC1C(=O)C=CC1CC(=O)OC (centres undefined)
Ans. 0.1

* * *

assay: Stability in presence of porcine liver esterase assessed as esterase-mediated compound hydrolysis by measuring ratio of intact compounds and their corresponding acids in pH 7.4 phosphate buffer at 37 degC at 30 mins post incubation by RP-HPLC; type: ADME; details: pig, isolated protein, pH 7.4, 0.5 h
Listing of recorded Ratio by entry.
Please give the numeric answer without any surrounding text.

CC/C=C\C[C@H]1C(=O)C=C[C@H]1CC(=O)OCCC
0

Qu. Param item = CC/C=C\C[C@H]1C(=O)C=C[C@H]1CC(=O)OCCOCCOCCO ; retrieve measured Ratio.
Ans. 7.6

Qu. Reported Ratio for CC/C=C\C[C@H]1C(=O)C=C[C@H]1CC(=O)Oc1ccccc1 : what is it?
Ans. 0

Qu. Bench note: what Ratio did CC/C=C\C[C@H]1C(=O)C=C[C@H]1CC(=O)Oc1ccccc1OC show?
Ans. 0

* * *

assay: Stability in presence of porcine liver esterase assessed as esterase-mediated compound hydrolysis by measuring ratio of intact compounds and their corresponding acids in pH 7.4 phosphate buffer at 37 degC at 30 mins post incubation by RP-HPLC; assay type: ADME; conditions: pig, isolated protein, pH 7.4, 0.5 h
Each entry gets 0.0 if its Ratio stays under 0.1, and 1.0 if its Ratio is 0.1 or above.

Solved entries:
CC/C=C\C[C@H]1C(=O)C=C[C@H]1CC(=O)OC(C)C
1.0
CC/C=C\C[C@H]1C(=O)C=C[C@H]1CC(=O)OCC
0.0
CC/C=C\C[C@H]1C(=O)C=C[C@H]1CC(=O)OCCCC
0.0
CC/C=C\C[C@H]1C(=O)C=C[C@H]1CC(=O)OCc1ccccc1
1.0
CC/C=C\C[C@H]1C(=O)C=C[C@H]1CC(=O)OCCCCC
0.0

Qu. Given CC/C=C\C[C@H]1C(=O)C=C[C@H]1CC(=O)OC(C)c1ccccc1 (some centres not stated) , state whether its Ratio is at least 0.1.
Ans. 1.0
